# maps each entry to its growth inhibition
- PROCEDURE DETAILS: NCI Yeast Anticancer Drug Screen. Data for the cln2 rad14 strain (AID 165);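 note: 0% = growth equal to vehicle treated cultures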
- MEASUREMENT CONTEXT: S. cerevisiae cln2 rad14 strain, at 50.0 µM (retest, dose inferred, filed as 5.0), active compounds read high
Compounds without any hit were thinned out: in the full panel of roughly 79,000, 15% have a hit.

COMPOUND	growth inhibition (%)
Nc1nc(-c2ccc3c(c2)Sc2ccccc2O3)cs1	99
CCCOCCC#N	-2
NC(=O)C1CCCN1C(=O)C1CCCN(Cc2cc(CN3CCCC(C(=O)N4CCCC4C(N)=O)C3)cc(CN3CCCC(C(=O)N4CCCC4C(N)=O)C3)c2)C1 (configuration not stated)	3
CN(C)C(=S)/N=c1\ssc(=S)n1Cc1ccco1	-11
Clc1nc(Cl)c(Cl)c(-c2ccccc2)n1	73
O=C1N=c2ccc(Br)cc2=C1c1sc(=O)n(Cc2nc3ccccc3[nH]2)c1O	6
CCC(=O)Oc1c(Cl)cc(Cl)c(Cl)c1Cl	30
CCCCCCCC/C=C\CCCCCCCC(=O)NCCN(C)C	99
CCOC(=O)/C(=C\c1cccc(Br)c1)C(C)=O	99
C/C(=N\NC(=S)N/N=C(\C)c1ccccn1)c1ccccn1	98
C=CCOC(=O)N(C(=O)OCC=C)C(Cc1ccc(O)cc1)C(=O)NNc1ccccc1 (configuration not stated)	56
Cc1nc2c(Cl)nc(Cl)nc2s1	97

====

- PROCEDURE DETAILS: NCI Yeast Anticancer Drug Screen. Data for the mec2-1 strain (AID 157)
- MEASUREMENT CONTEXT: S. cerevisiae mec2-1 strain, at 50.0 µM (retest, dose inferred, filed as 5.0), active compounds read high
This is part of a sample that, as a whole, favours compounds with a hit. Of some 79,000 tested, about 15% had one in any assay.

COMPOUND	growth inhibition (%)
CCOC(=O)CC1=NC(=Nc2cc(Cl)ccc2Cl)SC1	56
CC(=Nc1ccc(S(=O)(=O)c2ccc(N=C(C)N3CCCCC3)cc2)cc1)N1CCCCC1	-1
NNc1cc(C(F)(F)F)nc2ccccc12	-46
O=C(O)c1ccccc1-c1c2ccc(=O)c(Br)c-2oc2c(Br)c(O)ccc12	99
Cn1nc(-c2ccccc2NC(=O)C(F)(F)F)c(=O)n(C)c1=S	21
C=C1OC(=O)C(=O)N1CC(=O)O	-54
CCC1CCC(CC)C1O (configuration not stated)	-3
CC(C)C1=CC[C@H]2C(=C1)CC[C@@H]1[C@]2(C)CCC[C@@]1(C)C(=O)O	91
N=c1ccc2c(c1)[nH]c1c3ccccc3[nH]c3cccc2c31	98
CC(O)c1cc(-c2ccc(Cl)cc2)nc2ccccc12 (configuration not stated)	98
Cc1ccc(/C=C2\CCC/C(=C\c3ccc(O)c(CN4CCCCC4)c3)C2=O)cc1	15
COC1=Nc2ccccc2/C=C\c2ccccc21	-57

====

- PROCEDURE DETAILS: NCI Yeast Anticancer Drug Screen. Data for the bub3 strain (AID 167)
- MEASUREMENT CONTEXT: S. cerevisiae bub3 mutant strain, at 5.0 µM (retest, dose inferred, filed as 0.5), active compounds read high
About 79,000 compounds went through this panel and 15% of them were active in at least one assay; those are over-represented in the sample as a whole.
# maps each entry to its growth inhibition

COMPOUND	growth inhibition / %
CC(=O)N[C@H]1CC[C@H]2[C@@H]3CCC4=CC(=O)CC[C@]4(C)[C@H]3CC[C@]12C	-1
O=C(Nc1ccc(S(=O)(=O)NC2CCCCC2)cc1)OC1CCCCCCC1	92
CCOc1ccc(/C=C\c2ccnc3ccccc23)cc1OCC	5
Cc1cc(NCCCCCCCNc2cc(C)nc3cc(N)ccc23)c2ccc(N)cc2n1	-12
CNC1c2ccccc2C(=O)c2cc3c(cc21)OCCOCCOCCOCCO3 (stereo not drawn)	-13
O=[N+]([O-])c1ccc(C2=Nn3c(nnc3-c3ccc(Cl)cc3)SC2)o1	12
Cc1cc(C)c([O-])c(-[n+]2c(-c3ccccc3)cc(-c3ccccc3)cc2-c2ccccc2)c1	-2
CC(=O)N(C1=C(Cl)C(=O)c2ccccc2C1=O)c1ccc(F)cc1	57
CCN(CC)CCC(=O)NC1c2ccc(Cl)cc2Oc2c(C)cccc21 (stereo not drawn)	3
CN(C)c1ccc(/C=N/c2nc(-c3ccccc3)cs2)cc1	1
[N-]=[N+]=Nc1c(-c2ccccc2)c(=O)n(-c2ccccc2)c2ccccc12	-2
O=C(O)Cc1cccc(O)c1	-1
S=C(Nc1ccccn1)c1ccccn1	3
N#CC(C(=O)C(=O)Nc1ccc(Cl)cc1)c1c(Cl)cccc1Cl (stereo not drawn)	27
Cc1cc(Br)ccc1NC(=O)/C=C/C(=O)O	-4
COC(=O)C1c2cc3c(c(O)c2CCC1(C)O)C(=O)c1c(O)cc2c(c1C3=O)OC1OC2(C)C(O)C(N(C)C)C1O (stereo not drawn)	72
Cc1ccc(C(=O)CC(O)(C(F)(F)F)C(F)(F)F)cc1[N+](=O)[O-]	5
O=C1/C(=C/c2cccc(O)c2)SC(=S)N1/C=C\c1nc2ccccc2[nH]c1=O	11
Cc1nc(C)c(C(=O)NNC(=O)C[N+](C)(C)C)cc1C(=O)NNC(=O)C[N+](C)(C)C	-20
C#CCNC(C)(C)C	3
C=CS(=O)(=O)Cc1ccc(Cl)cc1	-48
Cc1cccc2c1NC(c1c(C)[nH]c3ccccc13)C2 (stereo not drawn)	-3
CC(=O)N1C(c2[nH]c3ccccc3c2Cc2ccccc2)CCN1c1ccccc1 (stereo not drawn)	-18

Every entry's value here was drawn from PubChem BioAssay (NCI).
